For each entry below, report its viability, T/C value.
System: K86415-001-R-J1-PDC complex spheroids, viability;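 further: spheroids exposed to agents for seven days before readout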
Assay: Anticancer human tumor K86415-001-R-J1-PDC patient-derived lung adenocarcinoma cell line growth inhibition [RAS]
Settings: second compound 0.1 µM; first compound 10 µM; active compounds read low
Use % as the unit, but write only the number.

Entry CC(=O)OC12COC1CC(O)C1(C)C(=O)C(O)C3=C(C)C(OC(=O)C(O)C(NC(=O)OC(C)(C)C)c4ccccc4)CC(O)(C(OC(=O)c4ccccc4)C21)C3(C)C (stereo not drawn) + C#Cc1c(F)ccc2cc(O)cc(-c3ncc4c(N5CC6CCC(C5)N6)nc(OCC56CCCN5CC(F)C6)nc4c3F)c12 : reported viability, T/C = ?
37

Entry NC1c2ccccc2OC12CCN(c1cnc3c(N4CCCc5ncccc54)n[nH]c3n1)CC2 (stereo not drawn) + C=CC(=O)N1CCN(c2nc(OCC3CCCN3C)nc3c(F)c(-c4nc(N)cc(C)c4C(F)(F)F)c(Cl)cc23)C(C)C1 : reported viability, T/C = ?
4.71

Entry CC1(O)CCCC1n1c(=O)c(C(F)F)cc2cnc(NC3CCN(S(C)(=O)=O)CC3)nc21 (stereo not drawn) + C=CC(=O)N1CCN(c2nc(OCC3CCCN3C)nc3c(F)c(-c4nc(N)cc(C)c4C(F)(F)F)c(Cl)cc23)C(C)C1 : reported viability, T/C = ?
4.11
